Molecular target: T1, recombinant HIS-tagged cyno nectin-4 (Acro Biosystems Cat. No. NE4-C52H4) (cyno, UniProt A0A2K5WES1 32-349)
T1 construct: Bought protein; HIS tag not described
T1 sequence: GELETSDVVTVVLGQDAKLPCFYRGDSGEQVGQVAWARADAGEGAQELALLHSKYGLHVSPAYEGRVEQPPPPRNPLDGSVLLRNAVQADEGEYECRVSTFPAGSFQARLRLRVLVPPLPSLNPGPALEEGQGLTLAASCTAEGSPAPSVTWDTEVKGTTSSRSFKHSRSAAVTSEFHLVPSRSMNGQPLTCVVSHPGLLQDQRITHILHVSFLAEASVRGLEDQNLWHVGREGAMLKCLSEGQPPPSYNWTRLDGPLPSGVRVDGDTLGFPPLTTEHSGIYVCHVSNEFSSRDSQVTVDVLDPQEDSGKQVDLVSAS
Assay: SPR Biacore 8K+, ADC captured via anti-human Fc, nectin-4 analyte, 37 C;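 further: Nectin-4 injected over captured ADC at 0 to 600 nM for 2 min association, then 10 min dissociation, with a reference flow cell lacking ADC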
Catalogue of koff values
Write the value in s⁻¹ as a bare number.

Here's what some known entries look like.
[[record]]
binder = "Ab7 ADC (Ab7 conjugated as in Formula XI, DAR of 8) (antibody, human IgG1, lambda, L234A L235A, V domains shown, camptothecin analog linker-payload of Formula XI on cysteine thiols after full reduction, DAR of 8 per antibody; positions not given, Antibody-drug conjugate of Ab7; also called Ab7 (ADC column)) VH: QVQLVQSGAEVKKPGASVKVSCKASGYTFTNYYMHWVRQAPGQGLEWMGIINPSSGSASYAQKFQGRVTMTRDTSTSTVYMELSSLRSEDTAVYYCAREGVGRDILQAFDIWGQGTLVTVSS VL: QSVLTQPPSVSEAPRQRVTISCSGSSSNIGNNAVNWYQQLPGKAPKLLIYYDDLLPSGVSDRFSGSKSGTSASLAISGLQSEDEADYYCAAWDDSLNGHVFGGGTKLTVLG"
unit_tag = "s⁻¹"
measured_value = 0.0464

[[record]]
binder = "Ab8 ADC (Ab8 conjugated as in Formula XI, DAR of 8) (antibody, human IgG1, lambda, L234A L235A, V domains shown, camptothecin analog linker-payload of Formula XI on cysteine thiols after full reduction, DAR of 8 per antibody; positions not given, Antibody-drug conjugate of Ab8; also called Ab8 (ADC column)) VH: QVQLVQSGAEVKKPGASVKVSCKASGYTFTSYYIHWVRQAPGQGLEWMGIINPISGRTSSAQKFQGRVTMTRDTSTSTVYMELSSLRSEDTAVYYCAKEGVGGELLRAFDIWGQGTLVTVSS VL: QSVLTQPPSVSEAPRQRVTISCSGSSSNIGNNAVNWYQQLPGKAPKLLIYYDDLLPSGVSDRFSGSKSGTSASLAISGLQSEDEADYYCAAWDDSLNGFVFGGGTKLTVLG"
unit_tag = "s⁻¹"
measured_value = 0.0524


// next entry
For Ab3 ADC (Ab3 conjugated as in Formula XI, DAR of 8) (antibody, human IgG1, kappa, L234A L235A, V domains shown, camptothecin analog linker-payload of Formula XI on cysteine thiols after full reduction, DAR of 8 per antibody; positions not given, Antibody-drug conjugate of Ab3; also called Ab3 (ADC column)) VH: EVQLVESGGGLVKPGGSLRLSCAASGFNLNHYNMNWVRQAPGKGLEWVSSVSSGGGFRYYADSVRGRFTISRDNAKNSLYLQMNSLRAEDTAVYYCARGAVFHDAFDIWGQGTLVTVSS VL: DIQLTQSPSFLSASVGDRVTITCRASQDISSYLAWYQQKPGKAPKLLIYVASTLQSGVPSRFSGSGSGTEFTLTISSLQPEDFATYYCQQINSYPFTFGQGTKVEIKR the binder record lists koff as 0.000426
